Entries and their measured self-aminoacylation follow.
Test system: biotinyl-Leu-oxazolone
Assay: self-aminoacylation, catalytic enhancement (BLO) (fold over background); higher = more active; k-Seq, kA / k0A0; sequences stand for … in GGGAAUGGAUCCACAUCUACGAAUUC…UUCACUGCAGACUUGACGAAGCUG
This sample holds only a part of the variants without activity.
readoutKind: self-aminoacylation

* AUUACCCUGGUCAUCUAGUGU [Fam2.1 aminoacylation ribozyme variant] | 4.08
* GUUACCCUGGUCAUCGAGUGA [Fam2.1 aminoacylation ribozyme variant] | 100
* AUUCACGUAGGUCAACGGGUG [Fam2.2 aminoacylation ribozyme variant] | 4.96
* CCACUCUUCAAGCAAUCGGGC [Fam1B.1 aminoacylation ribozyme variant] | 2.21
* CCACACUUCAAGCAAUAGGUG [Fam1B.1 aminoacylation ribozyme variant] | 2.81
* ACGUUUGCUAAUAGUCGAAAG [Fam3.1 aminoacylation ribozyme variant] | 1.09
* CAACACUUCAAGCAAUGGGUC [Fam1B.1 aminoacylation ribozyme variant] | 0.882

###

Tested on: biotinyl-Val-oxazolone
Assay: self-aminoacylation, catalytic enhancement (BVO) (fold over background); higher = more active; k-Seq, kA / k0A0; sequences stand for … in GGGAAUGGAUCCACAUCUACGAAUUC…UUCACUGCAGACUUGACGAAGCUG
Fewer inactive variants are shown than the library holds.
Lab note: anything with self-aminoacylation at or over 4 counts as Satisfied; the rest go in Not satisfied.

• AAGUUUGCUAACAGUCGCACG [Fam3.1 aminoacylation ribozyme variant] = Not satisfied
• CCACCCUUCGAGCAAUCGGUC [Fam1B.1 aminoacylation ribozyme variant] = Not satisfied
• AUUACCCAGGUCAUCGCGUGA [Fam2.1 aminoacylation ribozyme variant] = Satisfied
• CCACACUUCAAGCAAUUGGCC [Fam1B.1 aminoacylation ribozyme variant] = Satisfied
• AUUCACCUAAGGCAUCGGGUG [Fam2.2 aminoacylation ribozyme variant] = Not satisfied
• AUUACCCUAGUCAUUGAGUGA [Fam2.1 aminoacylation ribozyme variant] = Not satisfied
• AUUCACCGAGGUUAUCGGGUG [Fam2.2 aminoacylation ribozyme variant] = Satisfied
• CGACACUUCAAACAAUCGGUC [Fam1B.1 aminoacylation ribozyme variant] = Not satisfied
• ACUCACCUAGGUCAUCGCGUG [Fam2.2 aminoacylation ribozyme variant] = Satisfied
• AUUCACCAAGGUUAUCGGGUG [Fam2.2 aminoacylation ribozyme variant] = Satisfied
• CUACUUUAAUCAAUCGGUCUG [Fam1A.1 aminoacylation ribozyme variant] = Not satisfied
• AUUACCCCCGUCAUCGAGUGA [Fam2.1 aminoacylation ribozyme variant] = Not satisfied
• CUACAUCAAACAAUCGGACUG [Fam1A.1 aminoacylation ribozyme variant] = Not satisfied

###

Tested on: biotinyl-Ile-oxazolone
Assay: self-aminoacylation, catalytic enhancement (BIO) (fold over background); higher = more active; k-Seq, kA / k0A0; sequences stand for … in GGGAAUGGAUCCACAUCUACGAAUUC…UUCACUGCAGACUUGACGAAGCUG
This sample holds only a part of the variants without activity.
readoutKind: self-aminoacylation

* AAUUUUGCUAAUUGUCGCAAG [Fam3.1 aminoacylation ribozyme variant] | 2.45
* AUUACGCUGGCCAUCGAGUGA [Fam2.1 aminoacylation ribozyme variant] | 4.5
* AUGACCCAGGUCAUCGAGUGA [Fam2.1 aminoacylation ribozyme variant] | 2.5
* CCACAAUUCAAGCACUCGGUC [Fam1B.1 aminoacylation ribozyme variant] | 1.4
* AUCACCCUGGUCAUAGAGUGA [Fam2.1 aminoacylation ribozyme variant] | 5.17
* AUUCACCUACGUCAUCGGGUC [Fam2.2 aminoacylation ribozyme variant] | 1.17
* AUUCACCCAGGUCUUCGGGUG [Fam2.2 aminoacylation ribozyme variant] | 3.28
* CCGCAUUUCAAGCAAUCGGUC [Fam1B.1 aminoacylation ribozyme variant] | 2.36
* GAUACCCUGGUCAUCGAGUGA [Fam2.1 aminoacylation ribozyme variant] | 4.92
* AUUCACCAAGGCCAUCGGGUG [Fam2.2 aminoacylation ribozyme variant] | 3.32
* AUUCACCUAGUCCAUCGGGUG [Fam2.2 aminoacylation ribozyme variant] | 3.54
* CCACACUUCAAGCAAUCGCCC [Fam1B.1 aminoacylation ribozyme variant] | 0.996
* AUUACCCUGGUCAUUUAGUGA [Fam2.1 aminoacylation ribozyme variant] | 5.57
* UUUCACGUAGGUCAUCGGGUG [Fam2.2 aminoacylation ribozyme variant] | 2.89
* AGUCACGUAGGUCAUCGGGUG [Fam2.2 aminoacylation ribozyme variant] | 3.96
* CCACACUUCAAACAAUCAGUC [Fam1B.1 aminoacylation ribozyme variant] | 0.947
* GUUCACCUGGGUCAUCGGGUG [Fam2.2 aminoacylation ribozyme variant] | 4.47
* AAGUUUGCUACUAGUCGCAAC [Fam3.1 aminoacylation ribozyme variant] | 0.737
* AAGUUUGGUAAUAGUCGCAAU [Fam3.1 aminoacylation ribozyme variant] | 2.02
* CUUACGCUGGUCAUCGAGUGA [Fam2.1 aminoacylation ribozyme variant] | 2.13
* AUUCGCCUACGUCAUCGGGUG [Fam2.2 aminoacylation ribozyme variant] | 3.15
* UUUCACCUAGGUCAUCGGGCG [Fam2.2 aminoacylation ribozyme variant] | 3.06
* AAGUCUGCUAAUAGUCGCCAG [Fam3.1 aminoacylation ribozyme variant] | 1.1
* AUUCACCUAGGUCAGCCGGUG [Fam2.2 aminoacylation ribozyme variant] | 5.17
* CCACGCUUCAUGCAAUCGGUC [Fam1B.1 aminoacylation ribozyme variant] | 0.812
* AUUCACCGAGGUCAUCGGAUG [Fam2.2 aminoacylation ribozyme variant] | 1.18
* AUUCACGUAGGUCUUCGGGUG [Fam2.2 aminoacylation ribozyme variant] | 3.86
* AUUACCCUGGUCCUCGGGUGA [Fam2.1 aminoacylation ribozyme variant] | 5.18
* AAUACCCUGGUUAUCGAGUGA [Fam2.1 aminoacylation ribozyme variant] | 3.37
